The reported numbers originate from PubChem BioAssay (NCI).

system: OVCAR-5 ovarian; test: NCI tumour cell line growth inhibition, 48 h
measured_quantity: TGI

In [3]: df
Out[3]:
                           smiles_structure  measured_quantity  observed_value
0  O=C(CSc1nc2ccc(I)cc2c(=O)n1Cc1ccccc1)NNC(=S)Nc1ccccc1                TGI        > 100 µM
1  O=[N+]([O-])c1cc(I)cc(/C=N/NS(=O)(=O)c2ccc(F)cc2)c1O                TGI        > 100 µM
2  O=C(Nc1ccc(Cl)cc1)c1cc(NCc2cc(O)ccc2O)ccc1O                TGI           19 µM
3  CCOP(=O)(OCC)/C(=C\n1ccc(=O)[nH]c1=S)C(=O)OC                TGI        > 100 µM
4    Fc1ccccc1-c1cc(=S)c2cc3c(cc2[nH]1)OCO3                TGI        > 100 µM
